# Lookup of reported CC50 keyed by entry
System: HEL
assay.explanation: Cytostatic concentration required to inhibit HEL cell proliferation
Type: functional
stated.conditions: Homo sapiens
attribute.measured: CC50

[[record]]
compound_structure_string = "Cc1cn([C@@H]2O[C@H](CO[Si](C)(C)C(C)(C)C)[C@@]3(OS(=O)(=O)C=C3NCCC(=O)OCc3ccccc3)[C@H]2O[Si](C)(C)C(C)(C)C)c(=O)n(C)c1=O"
attribute_measured = "CC50"
recorded_value = "> 200 µM"

[[record]]
compound_structure_string = "CC(=O)NC1=CS(=O)(=O)O[C@@]12[C@@H](CO[Si](C)(C)C(C)(C)C)O[C@@H](n1cc(C)c(=O)n(C)c1=O)[C@@H]2O[Si](C)(C)C(C)(C)C"
attribute_measured = "CC50"
recorded_value = "> 200 µM"

[[record]]
compound_structure_string = "Cc1cn([C@@H]2O[C@H](CO[Si](C)(C)C(C)(C)C)[C@@]3(OS(=O)(=O)C=C3NCC(=O)OCc3ccccc3)[C@H]2O[Si](C)(C)C(C)(C)C)c(=O)n(C)c1=O"
attribute_measured = "CC50"
recorded_value = "> 200 µM"

[[record]]
compound_structure_string = "Cc1cn([C@@H]2O[C@H](CO[Si](C)(C)C(C)(C)C)[C@@]3(OS(=O)(=O)C=C3NC(=O)NC(=O)c3ccccc3)[C@H]2O[Si](C)(C)C(C)(C)C)c(=O)n(C)c1=O"
attribute_measured = "CC50"
recorded_value = "≥ 200 µM"

[[record]]
compound_structure_string = "COC(=O)NC1=CS(=O)(=O)O[C@@]12[C@@H](CO[Si](C)(C)C(C)(C)C)O[C@@H](n1cc(C)c(=O)n(C)c1=O)[C@@H]2O[Si](C)(C)C(C)(C)C"
attribute_measured = "CC50"
recorded_value = "> 200 µM"

[[record]]
compound_structure_string = "Cc1cn([C@@H]2O[C@@H]3COC(=O)[C@]3(OS(C)(=O)=O)[C@H]2O)c(=O)[nH]c1=O"
attribute_measured = "CC50"
recorded_value = "36 µM"

[[record]]
compound_structure_string = "Cc1cn([C@@H]2O[C@H](CO[Si](C)(C)C(C)(C)C)[C@@]3(OS(=O)(=O)C=C3NC(=O)C(N)=O)[C@H]2O[Si](C)(C)C(C)(C)C)c(=O)n(C)c1=O"
attribute_measured = "CC50"
recorded_value = "14.5 µM"

[[record]]
compound_structure_string = "COC(=O)CC(=O)NC1=CS(=O)(=O)O[C@@]12[C@@H](CO[Si](C)(C)C(C)(C)C)O[C@@H](n1cc(C)c(=O)n(C)c1=O)[C@@H]2O[Si](C)(C)C(C)(C)C"
attribute_measured = "CC50"
recorded_value = "29 µM"

[[record]]
compound_structure_string = "COC(=O)C(=O)NC1=CS(=O)(=O)O[C@@]12[C@@H](CO[Si](C)(C)C(C)(C)C)O[C@@H](n1cc(C)c(=O)n(C)c1=O)[C@@H]2O[Si](C)(C)C(C)(C)C"
attribute_measured = "CC50"
recorded_value = "> 200 µM"


The measured values listed here are drawn from ChEMBL document CHEMBL1142666.
